Experiment: yeast display, Sf9 membrane polyspecificity reagent, FACS + sequencing; frameworks hold sequencing errors
observation.type: polyreactivity (PSR sort gate)

construct.sequence	result
QVQLVESGGGLVQAGGSLRLICAASGSIFRGYTMGWYRQAPGKERELVATISWSGGSTYYADSVKGRFTISRDNAKNTVYLQMNSLKPEDTAVYYCAAVWYLGIPYDYWGQGTQVTVSS	high polyreactivity
QVQLVESGGGLVQAGGSLRLSCAASGRTFYSYTMGWYRPAPGKERELVAAISSRGGSTYYADSVKGRFTISRDNAKNTVYLQMNSLKPEDTAVYYCNAARYGRHLSTYDYWGQGTQVTVSS	high polyreactivity
QVQLGESGGGLVQAGGSLRLSCAASGRIFSHNAMGWDRQAPGKERELVAVISRSGTGTYYADSVKGRFTISRDNAKNTVYLQMNSLKPEDTAVYYCNTYYEWWYYWGQGTQVTVSS	high polyreactivity
QVQLVESGGGLVQAGGSLRLSCAASGRTFSRYTMGWYRQAPGKERELVAAISVNGGTTHYADSVKGRFTISRDNAKNTVYLQMNSLKPEDTAVYYCNARRRVGKYKYDYWGQGTQVTVSS	high polyreactivity
